Tested on: SNU-638
PROTOCOL: Cytotoxicity against human SNU638 cells after 3 days by SRB assay
Assay type: functional, cell-based
CONDITION: SNU-638, 72 h
PROPERTY: IC50 (nM)
Numbers only, in nM.

Below are 2 compounds. Give each one its IC50.
1. CCCn1nc2c(n1)C(=O)c1cnncc1C2=O
2. CC(C)n1nc2c(n1)C(=O)c1cnncc1C2=O

output:
43
11

====

Would you kindly list pIC50 for each of these compounds?
Test system: SK-OV-3
PROTOCOL: Cytotoxicity against human SKOV3 cells after 3 days by SRB assay
Assay type: functional, cell-based
CONDITION: SK-OV-3, 72 h
Numbers only, as −log10 of the molar value.

Cn1nnc2c1C(=O)c1cnncc1C2=O
8.52
Cn1nc2c(n1)C(=O)c1cnncc1C2=O
9.40
COc1cc([C@@H]2c3cc4c(cc3[C@@H](O[C@@H]3O[C@@H]5CO[C@@H](C)O[C@H]5[C@H](O)[C@H]3O)[C@H]3COC(=O)[C@H]23)OCO4)cc(OC)c1O [ETOPOSIDE]
5.37
CC(C)n1nnc2c1C(=O)c1cnncc1C2=O
7.31

input: Jot down pIC50 (SK-OV-3) of `O=C1c2cnncc2C(=O)c2[nH]nnc21` .
output: 5.12

====

Consider the following compounds; for each one, report its pIC50.
Test system: XF498
PROTOCOL: Cytotoxicity against human XF498 cells after 3 days by SRB assay
Type: functional, cell-based
CONDITION: XF498, 72 h
Give bare numbers, as −log10 of the molar value.

The following compounds have reported results that may help.
CC(C)n1nc2c(n1)C(=O)c1cnncc1C2=O
7.85
CCCn1nnc2c1C(=O)c1cnncc1C2=O
7.07
CC(C)Cn1nnc2c1C(=O)c1cnncc1C2=O
6.85
COc1ccc(Cn2nnc3c2C(=O)c2cnncc2C3=O)cc1
6.93
CCn1nc2c(n1)C(=O)c1cnncc1C2=O
7.77

Hi, could you look up pIC50 for each item in my list?
1. Cn1nc2c(n1)C(=O)c1cnncc1C2=O
2. CCCCn1nc2c(n1)C(=O)c1cnncc1C2=O
3. CCn1nnc2c1C(=O)c1cnncc1C2=O
4. COc1cc([C@@H]2c3cc4c(cc3[C@@H](O[C@@H]3O[C@@H]5CO[C@@H](C)O[C@H]5[C@H](O)[C@H]3O)[C@H]3COC(=O)[C@H]23)OCO4)cc(OC)c1O [ETOPOSIDE]
5. CC(C)n1nnc2c1C(=O)c1cnncc1C2=O

output:
1. 8.40
2. 7.72
3. 7.47
4. 5.46
5. 7.31

====

For each entry below, report its pIC50 value.
Tested on: SK-OV-3
PROTOCOL: Cytotoxicity against human SKOV3 cells after 3 days by SRB assay
Type: functional, cell-based
CONDITION: SK-OV-3, 72 h
Numbers only, as −log10 of the molar value.

CCn1nnc2c1C(=O)c1cnncc1C2=O
8.52
CC(C)n1nc2c(n1)C(=O)c1cnncc1C2=O
7.51
CC(C)Cn1nc2c(n1)C(=O)c1cnncc1C2=O
7.37
CC(C)Cn1nnc2c1C(=O)c1cnncc1C2=O
6.72
CCn1nc2c(n1)C(=O)c1cnncc1C2=O
8.52
CCCn1nnc2c1C(=O)c1cnncc1C2=O
7.85
COc1ccc(Cn2nnc3c2C(=O)c2cnncc2C3=O)cc1
7.92
CCCCn1nc2c(n1)C(=O)c1cnncc1C2=O
7.77

# return pIC50 for each item in the list
1. CCCCn1nnc2c1C(=O)c1cnncc1C2=O
2. COc1cccc2c1C(=O)c1c(O)c3c(c(O)c1C2=O)C[C@@](O)(C(=O)CO)C[C@@H]3O[C@H]1C[C@H](N)[C@H](O)[C@H](C)O1 [DOXORUBICIN]
3. CCCn1nc2c(n1)C(=O)c1cnncc1C2=O

output:
[7.68, 7.39, 8.05]

====

Test system: A549
PROTOCOL: Cytotoxicity against human A549 cells after 3 days by SRB assay
Type: functional, cell-based
CONDITION: A549, 72 h
PROPERTY: IC50
In your response, put the unit directly after the numeric value.

Worked cases, answers included:
CC(C)n1nc2c(n1)C(=O)c1cnncc1C2=O
9 nM
CC(C)n1nnc2c1C(=O)c1cnncc1C2=O
32 nM
CCCn1nnc2c1C(=O)c1cnncc1C2=O
26 nM

For each listed entry, give its IC50.
1. COc1ccc(Cn2nnc3c2C(=O)c2cnncc2C3=O)cc1
2. CC(C)Cn1nnc2c1C(=O)c1cnncc1C2=O
3. CCn1nnc2c1C(=O)c1cnncc1C2=O

output:
1: 54 nM; 2: 110 nM; 3: 6 nM

Dear colleague, could you send me IC50 for each of the items below? Thanks.
1. O=C1c2cnncc2C(=O)c2[nH]nnc21
2. Cn1nc2c(n1)C(=O)c1cnncc1C2=O
3. CCCn1nc2c(n1)C(=O)c1cnncc1C2=O
4. CCCCn1nc2c(n1)C(=O)c1cnncc1C2=O
5. CCn1nc2c(n1)C(=O)c1cnncc1C2=O
6. COc1cc([C@@H]2c3cc4c(cc3[C@@H](O[C@@H]3O[C@@H]5CO[C@@H](C)O[C@H]5[C@H](O)[C@H]3O)[C@H]3COC(=O)[C@H]23)OCO4)cc(OC)c1O [ETOPOSIDE]

output:
1. 9020 nM
2. 2 nM
3. 19 nM
4. 18 nM
5. 18 nM
6. 1160 nM

Batch request: IC50 per item, same order as input.
1. CCCCn1nnc2c1C(=O)c1cnncc1C2=O
2. Cn1nnc2c1C(=O)c1cnncc1C2=O
3. CC(C)Cn1nc2c(n1)C(=O)c1cnncc1C2=O

output:
1: 81 nM; 2: 4 nM; 3: 19 nM

====

System: SK-MEL-2
PROTOCOL: Cytotoxicity against human SK-MEL-2 cells after 3 days by SRB assay
Assay type: functional, cell-based
CONDITION: SK-MEL-2, 72 h
Please respond with reported pIC50 for every item in the list.
One number for each entry, as −log10 of the molar value.

Reference set (5 entries):
CCCCn1nc2c(n1)C(=O)c1cnncc1C2=O
7.82
Cn1nnc2c1C(=O)c1cnncc1C2=O
8.10
CCCCn1nnc2c1C(=O)c1cnncc1C2=O
7.64
CC(C)n1nnc2c1C(=O)c1cnncc1C2=O
7.80
Cn1nc2c(n1)C(=O)c1cnncc1C2=O
8.70

I would be grateful if you could provide pIC50 for each of the following entries.
1. CC(C)Cn1nnc2c1C(=O)c1cnncc1C2=O
2. COc1ccc(Cn2nnc3c2C(=O)c2cnncc2C3=O)cc1

output:
[7.18, 7.39]

====

Test system: SK-MEL-2
PROTOCOL: Cytotoxicity against human SK-MEL-2 cells after 3 days by SRB assay
Assay type: functional, cell-based
CONDITION: SK-MEL-2, 72 h
Consider the following compounds; for each one, report its IC50.
One number for each entry, in nM.

CCn1nnc2c1C(=O)c1cnncc1C2=O
8
CC(C)n1nc2c(n1)C(=O)c1cnncc1C2=O
7
COc1cccc2c1C(=O)c1c(O)c3c(c(O)c1C2=O)C[C@@](O)(C(=O)CO)C[C@@H]3O[C@H]1C[C@H](N)[C@H](O)[C@H](C)O1
19

input: Give the measured IC50 for `CC(C)Cn1nc2c(n1)C(=O)c1cnncc1C2=O`
output: 15

====

Tested on: SNU-638
PROTOCOL: Cytotoxicity against human SNU638 cells after 3 days by SRB assay
Type: functional, cell-based
CONDITION: SNU-638, 72 h
Record form. Attribute: IC50. Fill in for each entry.
A bare number is not enough; add the unit after it.

CCn1nc2c(n1)C(=O)c1cnncc1C2=O
46 nM
CC(C)Cn1nnc2c1C(=O)c1cnncc1C2=O
69 nM
Cn1nc2c(n1)C(=O)c1cnncc1C2=O
54 nM
COc1ccc(Cn2nnc3c2C(=O)c2cnncc2C3=O)cc1
257 nM
CCn1nnc2c1C(=O)c1cnncc1C2=O
126 nM
CC(C)Cn1nc2c(n1)C(=O)c1cnncc1C2=O
14 nM

The record that follows has no IC50 shown yet.
input: Retrieve IC50 on SNU-638; query `CCCn1nnc2c1C(=O)c1cnncc1C2=O`
output: 212 nM

====

MEASURED ON: DNA topoisomerase 2-alpha (Homo sapiens, UniProt P11388)
Sequence (P11388 whole entry): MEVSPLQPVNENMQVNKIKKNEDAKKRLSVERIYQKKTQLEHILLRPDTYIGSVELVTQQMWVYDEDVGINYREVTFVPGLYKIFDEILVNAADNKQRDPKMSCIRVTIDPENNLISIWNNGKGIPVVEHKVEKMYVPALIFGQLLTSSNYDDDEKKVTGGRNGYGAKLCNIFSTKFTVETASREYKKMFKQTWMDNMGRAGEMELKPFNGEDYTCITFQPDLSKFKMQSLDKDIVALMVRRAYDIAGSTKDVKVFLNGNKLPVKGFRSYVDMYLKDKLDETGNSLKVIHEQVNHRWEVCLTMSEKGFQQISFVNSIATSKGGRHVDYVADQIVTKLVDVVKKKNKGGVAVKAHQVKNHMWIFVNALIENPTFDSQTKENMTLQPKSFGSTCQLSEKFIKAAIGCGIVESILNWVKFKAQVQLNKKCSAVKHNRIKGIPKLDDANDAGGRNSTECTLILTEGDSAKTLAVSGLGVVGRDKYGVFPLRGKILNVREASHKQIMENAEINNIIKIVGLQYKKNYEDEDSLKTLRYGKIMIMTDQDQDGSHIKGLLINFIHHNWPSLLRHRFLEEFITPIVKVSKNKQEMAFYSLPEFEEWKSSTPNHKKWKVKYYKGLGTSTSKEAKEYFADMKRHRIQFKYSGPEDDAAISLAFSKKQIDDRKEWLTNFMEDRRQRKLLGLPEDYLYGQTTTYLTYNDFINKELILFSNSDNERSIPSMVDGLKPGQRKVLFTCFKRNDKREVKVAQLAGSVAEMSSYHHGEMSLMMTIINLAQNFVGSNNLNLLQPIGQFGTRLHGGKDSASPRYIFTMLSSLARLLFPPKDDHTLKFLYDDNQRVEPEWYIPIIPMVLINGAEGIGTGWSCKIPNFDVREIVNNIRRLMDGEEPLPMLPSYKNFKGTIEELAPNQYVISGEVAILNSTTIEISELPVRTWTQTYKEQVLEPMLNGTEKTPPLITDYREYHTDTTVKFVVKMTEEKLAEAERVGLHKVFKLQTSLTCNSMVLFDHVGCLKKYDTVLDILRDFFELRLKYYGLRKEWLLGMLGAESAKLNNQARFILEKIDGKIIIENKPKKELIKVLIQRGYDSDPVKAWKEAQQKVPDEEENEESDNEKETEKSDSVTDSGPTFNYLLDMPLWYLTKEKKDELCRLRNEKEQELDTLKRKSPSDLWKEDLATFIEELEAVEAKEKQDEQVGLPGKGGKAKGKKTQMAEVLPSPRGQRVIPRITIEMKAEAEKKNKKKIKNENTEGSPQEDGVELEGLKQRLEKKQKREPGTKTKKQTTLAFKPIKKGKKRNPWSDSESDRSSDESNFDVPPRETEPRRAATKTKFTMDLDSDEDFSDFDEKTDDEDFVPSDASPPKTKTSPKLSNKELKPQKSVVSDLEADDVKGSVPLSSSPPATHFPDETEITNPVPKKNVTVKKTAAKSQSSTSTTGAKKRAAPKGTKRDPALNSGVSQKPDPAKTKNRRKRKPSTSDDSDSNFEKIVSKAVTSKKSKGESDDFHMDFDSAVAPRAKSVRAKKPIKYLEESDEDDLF
PROTOCOL: Inhibition of human recombinant topoisomerase 2 by decatenation assay
Exercise: for every item that follows, state its recorded pIC50.
Answers are plain numbers, as −log10 of the molar value.

In the examples that follow, each entry is paired with its recorded pIC50.
CCCCn1nc2c(n1)C(=O)c1cnncc1C2=O
4.19
CCCCn1nnc2c1C(=O)c1cnncc1C2=O
4.36

Parameters: items (list). Returns: pIC50 for each item.
1. CC(C)n1nnc2c1C(=O)c1cnncc1C2=O
2. CCn1nnc2c1C(=O)c1cnncc1C2=O
3. Cn1nnc2c1C(=O)c1cnncc1C2=O
4. CCCn1nc2c(n1)C(=O)c1cnncc1C2=O
5. CC(C)Cn1nc2c(n1)C(=O)c1cnncc1C2=O

output:
1. 4.48
2. 4.25
3. 4.41
4. 4.35
5. 4.71
